- target.system: human complement factor B (CVF-Bb complex) (Homo sapiens (Human), UniProt P00751)
- procedure.text: Human Complement Factor B ELISA Assay
- Format: biochemical
- setup.conditions: CVF-Bb complex 3 nM, 1 hour preincubation with compound at room temperature, human C3 substrate 1 μM, C3a quantified by ELISA; read-out: Factor B IC50
property.name: IC50 (µM)

1. COc1cc2c(N)nc(N3CCN(C(=O)C[C@@H](N)c4cccc(Cl)c4)CC3)nc2c(F)c1OC ... 0.11
2. COCCOc1c(OC)cc2c(N)nc(N3CCN(C(=O)c4cc5cc(Cl)ccc5[nH]4)C[C@@H]3C)nc2c1F ... 0.07
3. CC[C@H]1CN(C(=O)c2cc3cc(C#N)ccc3[nH]2)CCN1c1nc(N)c2cc(OC)c(OC)c(F)c2n1 ... 0.006
4. COc1cc2c(N)nc(N3CCN(C(=O)C[C@@H](NC(C)C)c4ccc(F)cc4)CC3)nc2c(F)c1OC ... 0.03
